// data source = ChEMBL document CHEMBL3991601

Active and inactive are the calls of the source.
Reported Kd for target or system Dual specificity testis-specific protein kinase 2 (Homo sapiens), by entry. Further: in the data inactive means no Kd found up to 30 µM.

Cc1cnc(NC(=O)Nc2cc(Br)c(C)cc2OC[C@@H]2CNCCO2)cn1 [RABUSERTIB]: > 30 µM (inactive)
CNC(=O)c1cc(Oc2ccc(NC(=O)Nc3cc(C(C)(C)C)nn3-c3ccc4ncccc4c3)c(F)c2)ccn1 [REBASTINIB]: 0.002 µM
O=C(Nc1c[nH]nc1-c1nc2cc(CN3CCOCC3)ccc2[nH]1)NC1CC1 [AT-9283]: > 30 µM (inactive)

Pending molecule:
Would you kindly share the measured Kd for CC(=O)NCC(=O)N1[C@@H]2CC[C@H]1c1ccc(Nc3ncc(C(F)(F)F)c(NC4CCC4)n3)cc12 [PF-03814735] ? > 30 µM (inactive)
